Source listed as patent US20230278984A1.

Would you mind telling me the reported log10(AC50) of each entry?
EXPERIMENTAL SYSTEM: Human pyruvate kinase R (PKR) (Homo sapiens, UniProt P30613)
Construct: Human pyruvate kinase R (PKR), residues 14-574; 6x-His (N, cleaved yes); 8x-Arg (N, cleaved yes); SUMO (N, cleaved yes); host or cells: E. coli
Sequence (P30613 14-574): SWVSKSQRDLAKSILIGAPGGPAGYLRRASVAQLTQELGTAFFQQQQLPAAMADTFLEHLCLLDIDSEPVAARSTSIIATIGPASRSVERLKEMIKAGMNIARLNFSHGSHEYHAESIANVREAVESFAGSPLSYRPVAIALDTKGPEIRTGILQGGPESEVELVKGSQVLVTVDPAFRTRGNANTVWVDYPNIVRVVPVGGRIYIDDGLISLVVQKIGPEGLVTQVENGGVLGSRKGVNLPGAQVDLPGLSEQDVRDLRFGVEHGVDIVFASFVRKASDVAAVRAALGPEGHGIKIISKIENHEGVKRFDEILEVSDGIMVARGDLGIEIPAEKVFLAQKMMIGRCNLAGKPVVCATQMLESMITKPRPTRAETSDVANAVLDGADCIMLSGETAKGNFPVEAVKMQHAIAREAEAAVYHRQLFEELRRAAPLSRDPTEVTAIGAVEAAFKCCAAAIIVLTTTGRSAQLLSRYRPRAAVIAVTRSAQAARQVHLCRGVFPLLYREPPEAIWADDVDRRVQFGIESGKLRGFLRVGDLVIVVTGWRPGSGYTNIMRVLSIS
ASSAY TEXT: Biochemical assay for activation of pyruvate kinase R (Kinase-Glo luminescence measurement of ATP generation)
EXPERIMENTAL CONTEXT: PKR biochemical assay; 0.1 nM PKR, 0.3 mM ADP, 2 mM FBP, 0.1 mM PEP
Experimental: Human pyruvate kinase R (PKR), residues 14-574, and human pyruvate kinase M2, residues 1-531, were cloned into expression plasmids and obtained from ATUM Bio (Newark, Calif.). Proteins were translated as fusions with 6×-His, 8×-Arg, and SUMO at the N-terminus. […] Activation of pyruvate kinase R (PKR) and pyruvate kinase M2 (PKM2) were measured using a luminescence based measurement of ATP generation and the Kinase-Glo luminescent kinase reagent kit.
Please note: log10 values; quantity AC50; unit nM.

*Q* What is its log10(AC50) for Human pyruvate kinase R (PKR) (Homo sapiens, UniProt P30613)? Entry: "COc1ccc(-n2ncnc2CNC(=O)NCc2ncnn2-c2ccc(OC)cc2)cc1"
*A* 3.26

*Q* Here is the next molecule: "O=C(NCc1ncnn1-c1ccc(Cl)c(F)c1)NCc1nnnn1-c1ccc2c(c1)OC(F)(F)O2"
*A* 2.66

*Q* Here is the next molecule: "CCN(Cc1ncnn1-c1ccc(Cl)c(F)c1)C(=O)NCc1ncnn1-c1ccc(O)nc1"
*A* 3.89

*Q* Here is the next molecule: "Cc1nc(CNC(=O)NCc2ncnn2-c2cnc3cccnc3c2)n(-c2ccc(Cl)c(F)c2)n1"
*A* 2.00

*Q* Here is the next molecule: "Cc1ccc(-n2ncnc2CN(C)C(=O)NCc2nc(C)nn2-c2ccc(Cl)c(F)c2)cn1"
*A* 2.20

*Q* Here is the next molecule: "Cc1nc(CNC(=O)NCc2ncnn2-c2cncc(C3CC3)c2)n(-c2ccc(Cl)c(F)c2)n1"
*A* 2.20

*Q* Here is the next molecule: "O=C(NCc1ncnn1-c1ccc(Cl)c(F)c1)NCc1ncnn1C1CCOCC1"
*A* 2.62

*Q* Here is the next molecule: "O=C(NCc1nnnn1-c1ccc(Cl)cc1)NCc1nnnn1-c1ccc(Cl)cc1"
*A* 2.28

*Q* Here is the next molecule: "COCCc1nc(CNC(=O)NCc2nc(C)nn2-c2ccc3cccnc3c2)n(-c2ccc(Cl)c(F)c2)n1"
*A* 2.71

*Q* Here is the next molecule: "Cc1nc(CNC(=O)NCc2nc(C3CC3)nn2-c2ccc3cccnc3c2)n(-c2ccc(Cl)c(F)c2)n1"
*A* 1.90

*Q* Here is the next molecule: "CCc1ccc(-n2ncnc2CNC(=O)NCc2nc(C)nn2-c2ccc(Cl)c(F)c2)cn1"
*A* 2.15

*Q* Here is the next molecule: "Cc1nc(CNC(=O)NCc2nc(C)nn2-c2ccc3cccnc3c2)n(-c2ccc(Cl)c(F)c2)n1"
*A* 1.92

*Q* Here is the next molecule: "O=C(NCc1ncnn1-c1ccc(Cl)c(F)c1)N(CCF)Cc1ncnn1-c1ccc(Cl)c(F)c1"
*A* 1.74

*Q* Here is the next molecule: "O=C(NCc1ncnn1-c1ccc(F)c(Cl)c1)NCc1ncnn1-c1ccc(F)c(Cl)c1"
*A* 2.08

*Q* Here is the next molecule: "Cc1nc(CNC(=O)NCc2nc(CCO)nn2-c2ccc(Cl)c(F)c2)n(-c2ccc3cccnc3c2)n1"
*A* 2.86

*Q* Here is the next molecule: "Cc1nc(CNC(=O)NCc2ncnn2Cc2ccc(F)cc2)n(-c2ccc(Cl)c(F)c2)n1"
*A* 1.71
